Listed molecules paired with reported Papp A→B at 180 min
- Assay Info: Caco-2 membrane permeability, improved method as used in the following Examples (96-well, 20 to 24 h preincubation)
- Assay type: in vitro ADME
- Run Conditions: human, Caco-2, Caco-2
Starred links: 1 amine or outer side, 2 acyl side, 3 side chain; linkers in the order of their positions; H or OH if unused. Positions of bridges follow the written chain, without caps; N, C: chain ends. Non-standard residues stand in square brackets, D forms with d. Residues, ends and D or L forms follow the SMILES beside them. *: point of attachment. Glu(NHSO2Me) = CS(=O)(=O)NC(=O)CC[C@H](N)C(=O)O; NMePhe(3-Cl) = CN[C@@H](Cc1cccc(Cl)c1)C(=O)O; X3 = O=C([C@H](CCCCO)N[*:1])[*:2]; NMeF = CN[C@@H](Cc1ccccc1)C(=O)O; NMeL = CN[C@@H](CC(C)C)C(=O)O; NMeV = CN[C@H](C(=O)O)C(C)C; NMeA = CN[C@@H](C)C(=O)O; Piperidide = C1CCN(*)CC1; NBuGly = CCCCNCC(=O)O; Sar = CNCC(=O)O

| Molecule | Papp A→B at 180 min (×10⁻⁶ cm/s) |
| --- | --- |
| CC(C)C[C@@H]1NC(=O)[C@H](C)N(C)C(=O)C[C@@H](C(=O)N2CCCCC2)NC(=O)[C@H](CC(C)C)N(C)C(=O)CN(C)C(=O)[C@H](CCCCO)NC(=O)[C@H](CC(C)C)N(C)C(=O)[C@H](Cc2ccccc2)N(C)C(=O)[C@H](CC(C)C)NC(=O)[C@H](Cc2ccccc2)N(C)C(=O)[C@H](CC(C)C)N(C)C1=O [pd451] ([NMeA]L[NMeL][NMeF]L[NMeF][NMeL][X3][Sar][NMeL]D-Piperidide; lactam N-11) | 4.1 |
| CCCCN1CC(=O)N(C)[C@@H](CC(C)C)C(=O)N[C@@H](CCC(=O)NS(C)(=O)=O)C(=O)N(C)[C@@H](Cc2cccc(Cl)c2)C(=O)N(C)[C@@H](C(C)C)C(=O)N[C@H](C(=O)N2CCCCC2)CC(=O)N[C@H](CC(C)C)C(=O)N(C)[C@@H](Cc2cccc(Cl)c2)C(=O)N[C@@H](CC(C)C)C(=O)N(C)[C@@H](CC(C)C)C(=O)N[C@@H]([C@@H](C)O)C1=O [pd60] ([dL][NMePhe(3-Cl)]L[NMeL]T[NBuGly][NMeL][Glu(NHSO2Me)][NMePhe(3-Cl)][NMeV]D-Piperidide; lactam N-11) | 0.01 |

Where do these numbers come from? They come from patent US20200131669A1.
